Biological target: UniProt P47745
observed.property: Ki (pM)
Numbers only; they are read as pM.

Enter reported Ki observed with UniProt P47745 for CCCn1c(=O)c2[nH]c(C3CC4CC3C3OC43)nc2n(CCC)c1=O (racemic) [ENX]
450

* * *

Consider the following compounds and their measured Ki readings.
Biological target: A1 receptor (Cavia porcellus, UniProt P47745)
Construct: isolated perfused guinea pig heart; from tissue; host or cells: isolated perfused guinea pig heart
Sequence (P47745 1-326): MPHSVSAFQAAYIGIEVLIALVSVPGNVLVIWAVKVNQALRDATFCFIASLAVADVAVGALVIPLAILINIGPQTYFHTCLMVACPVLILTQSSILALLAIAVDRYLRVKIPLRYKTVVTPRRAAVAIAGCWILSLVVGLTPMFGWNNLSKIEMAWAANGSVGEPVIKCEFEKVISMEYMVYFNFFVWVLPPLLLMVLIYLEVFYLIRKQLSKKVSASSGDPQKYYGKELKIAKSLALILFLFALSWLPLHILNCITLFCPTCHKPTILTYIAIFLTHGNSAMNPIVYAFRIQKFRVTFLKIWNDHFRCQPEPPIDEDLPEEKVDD
Test: A1 receptor binding with [3H]CPX in brain membranes (Table 4)
Parameters: species or system guinea pig
Conditions: read-out: Ki, Brain
Numbers only; they are read as nM.

Query (compound): Cn1c(=O)c2[nH]c(C3CCCC3)nc2n(C)c1=O [CPT, 8cyclopentyl-1,3-dimethylxanthine] ; field requested: Ki
41

Others:
Query (compound): CCCn1c(=O)c2[nH]c(C34CC5CC(CC3C5)C4)nc2n(CCC)c1=O [NAX, 1,3dipropyl-8-(3-noradamantyl)xanthine] ; field requested: Ki
3.8

* * *

Consider the following compounds and their measured EC50 readings.
Molecular target: UniProtKB A0A1U8BVR4
Sequence (A0A1U8BVR4 1-326): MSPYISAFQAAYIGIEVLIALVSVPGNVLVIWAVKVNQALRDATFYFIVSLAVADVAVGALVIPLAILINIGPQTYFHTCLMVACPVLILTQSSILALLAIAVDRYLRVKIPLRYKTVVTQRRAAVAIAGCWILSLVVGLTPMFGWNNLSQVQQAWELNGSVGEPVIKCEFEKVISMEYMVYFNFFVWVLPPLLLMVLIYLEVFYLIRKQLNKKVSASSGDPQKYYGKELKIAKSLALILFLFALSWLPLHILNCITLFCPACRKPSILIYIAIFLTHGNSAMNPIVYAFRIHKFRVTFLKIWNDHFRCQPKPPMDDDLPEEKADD
Conditions: EC50, text to Table 8, DDT cells

Consider the following illustrative entries.
Enter reported EC50 observed with UniProtKB A0A1U8BVR4 for OC[C@H]1O[C@@H](n2cnc3c(N[C@H]4C[C@@H]5C[C@H]4[C@H]4O[C@@H]54)ncnc32)[C@H](O)[C@@H]1O (relative stereo)
1 to 2 nM

Enter reported EC50 observed with UniProtKB A0A1U8BVR4 for OC[C@H]1O[C@@H](n2cnc3c(N[C@@H]4C[C@@H]5C[C@H]4[C@H]4O[C@@H]54)ncnc32)[C@H](O)[C@@H]1O (relative stereo)
1 to 2 nM

Enter reported EC50 observed with UniProtKB A0A1U8BVR4 for [O-][n+]1cnc2c(ncn2[C@@H]2O[C@H](CO)[C@@H](O)[C@H]2O)c1N[C@@H]1C[C@@H]2C[C@H]1[C@H]1O[C@@H]21 (relative stereo)
403 nM

Proceed to the following item.
Enter reported EC50 observed with UniProtKB A0A1U8BVR4 for OC[C@H]1O[C@@H](n2cnc3c(NC4CCCC4)ncnc32)[C@H](O)[C@@H]1O [CPA, N^6 -cyclopentyladenosine, reference compound]
1 to 2 nM
